Values of IC50 for Angiotensin-converting enzyme (Oryctolagus cuniculus), collected from a number of published sources:
Label Condition met when IC50 < 0.6 µM; otherwise Condition not met.

>>> assigned_class("CCCCCCP(=O)(O)O[C@@H](CCCCN)C(=O)N1CCC[C@H]1C(=O)O")
"Condition met"
>>> assigned_class("O=C(O)CN1C(=O)[C@H](N[C@@H](CCc2ccccc2)C(=O)O)Cc2ccccc21")
"Condition not met"
>>> assigned_class("CC(C)[C@H](S)C(=O)NC1(C(=O)N[C@@H](Cc2ccc(F)cc2)C(=O)O)CCCC1")
"Condition met"
>>> assigned_class("CC(C)[C@H](S)C(=O)NC1(C(=O)N[C@@H](Cc2cccs2)C(=O)O)CCCC1")
"Condition met"
>>> assigned_class("CCOC(=O)C1=C(C)NC(C)=C(C(=O)OCC)C1c1cccc(OC)c1OCc1cn(CCC(F)(F)C(F)(F)C(F)(F)C(F)(F)C(F)(F)C(F)(F)C(F)(F)C(F)(F)F)nn1")
"Condition not met"
>>> assigned_class("O=C(O)CN1C[C@@H](c2ccsc2)SC[C@H](N[C@@H](CCc2ccccc2)C(=O)O)C1=O")
"Condition met"
>>> assigned_class("CC(=O)SCC(C)C(=O)N(CC(=O)O)C1CCCC1 (configuration not stated)")
"Condition met"
>>> assigned_class("O=C(O)[C@@H](CCC(=O)N1c2ccccc2C[C@H]1C(=O)O)NCc1ccccc1")
"Condition met"
>>> assigned_class("CCCCc1nc(Cl)c(C(=O)N[C@@H](Cc2ccccc2)C(=O)OC)n1C")
"Condition not met"
>>> assigned_class("CCCC(N[C@H](C)C(=O)N1C(C(=O)O)CC2CCCCC21)C(=O)O (some centres not stated)")
"Condition not met"
>>> assigned_class("CSCC[C@@H](NC(=O)[C@H](CS)CCc1ccccc1)C(=O)O")
"Condition not met"
>>> assigned_class("COc1ccc(/C=C/C(=O)c2cc(OC)c(OC)c(OC)c2)cc1")
"Condition not met"
>>> assigned_class("CC(C)OC(=O)[C@H](O)[C@H](CC1CCCCC1)NC(=O)[C@H](Cc1c[nH]cn1)NC(=O)[C@@H](CC(=O)N1CCOCC1)Cc1cccc2ccccc12")
"Condition not met"
>>> assigned_class("C[C@H](NC(=O)[C@@H](CS)Cc1ccccc1)C(=O)N1Cc2ccccc2C[C@H]1C(=O)O")
"Condition met"
>>> assigned_class("O=C(N[C@H](CCC(=O)N1c2ccccc2C[C@H]1C(=O)O)C(=O)O)c1cccnc1")
"Condition met"
>>> assigned_class("O=C1OCN(C(=O)OCc2ccccc2)[C@@H]1CCC(=O)N1c2ccccc2C[C@H]1C(=O)O")
"Condition met"
>>> assigned_class("C#CCN(CC(=O)O)C(=O)C(C)CSC(C)=O (configuration not stated)")
"Condition not met"
>>> assigned_class("Cc1ccc(CSC[C@@H](NC(=O)[C@H](CS)Cc2ccccc2)C(=O)O)cc1C")
"Condition not met"
>>> assigned_class("CC(=O)SCC(C)C(=O)N(CC(=O)O)c1ccccc1 (configuration not stated)")
"Condition met"
>>> assigned_class("CCCCCP(=O)(O)O[C@@H](CCCCN)C(=O)N1CCC[C@H]1C(=O)O")
"Condition met"
>>> assigned_class("CSCC[C@@H](NC(=O)C1(CS)CCCC1)C(=O)O")
"Condition not met"
>>> assigned_class("COc1ccc(C2C[C-](c3cc(OC)c(OC)c(OC)c3)N=[N+]2C)cc1[N+](=O)[O-] (configuration not stated)")
"Condition not met"
>>> assigned_class("O=C(N[C@@H](Cc1c[nH]c2ccccc12)C(=O)N1CCC[C@H]1C(=O)O)[C@@H](CS)Cc1ccccc1")
"Condition met"
>>> assigned_class("CC(CS)C(=O)N(CC(=O)O)CC1CCCO1 (configuration not stated)")
"Condition met"
>>> assigned_class("CCCCc1nc(Cl)c(C2CC(c3ccc(Cl)s3)=NN2C(C)=O)n1C (configuration not stated)")
"Condition not met"
>>> assigned_class("O=C(N[C@H](CSC(c1ccccc1)(c1ccccc1)c1ccccc1)C(=O)O)C(CS)Cc1ccccc1 (some centres not stated)")
"Condition not met"
